System: astro (control astrocytes)
Assay: Drug repurposing screens with cells derived from glioblastoma tumor samples (AID 1345199); further: nearly all actives have a fitted effect of over 40% in size
Conditions: viability, ATP luminescence, 48 h; series mostly up to 45.9 µM
Procedure: CD133+ cells were isolated from GBM patient biopsies and cultured as neurospheres. Neurospheres from four patients were used to screen the NCATS pharmaceutical collection (NPC) library of approved drugs and bioactive compounds. […] The neurospheres were incubated with drugs for 48 hours in 1536-well format, then assayed with an ATP content cell viability assay. […]
Records with an inconclusive call do not appear. Active and inactive are the calls of the source. The call rests on the fitted dose curve; in most records, active means well fitted inhibition curve with a large enough effect; inconclusive means small, poorly fitted or top-dose-only effect; inactive means flat fitted curve, though single readings scatter.
Select the correct class. Options are 1.0 (active), 0.0 (inactive) and nothing else.

Below, 10 compounds whose answers are already recorded.
compound	discrete.label
COc1cc(C[C@H](C)N)c(OC)cc1C	0.0
CCCCCCCCCC[N+](C)(C)CCCCCCCCCC	1.0
C[C@@H](N)C(=O)c1ccccc1	0.0
CCC(=O)O[C@](Cc1ccccc1)(c1ccccc1)[C@H](C)CN(C)C	0.0
C/C=C(\CC)C(=O)NC(N)=O	0.0
CN(C)CCO	0.0
O=C(O)CCCO	0.0
CCOC(=O)C1(c2ccccc2)CCCN(C)CC1 (stereo not drawn)	0.0
C[C@@H]1[C@@H]2Cc3ccc(O)cc3[C@@]1(C)CCN2CCc1ccccc1	0.0
CNC(C)CC1CCCCC1 (stereo not drawn)	0.0

Could you check what this test reported for CC[C@@H](O)C(C[C@@H](C)N(C)C)(c1ccccc1)c1ccccc1 ?
0.0

Could you check what this test reported for Oc1ccc2c3c1O[C@H]1[C@@H](O)C=C[C@H]4[C@H](C2)NCC[C@@]341 ?
0.0

Could you check what this test reported for COc1cc(C[C@H](C)N)c(OC)cc1Br ?
0.0

----------
tested on: CP203; assay: qHTS profiling for inhibitors of Plasmodium falciparum proliferation (AID 504749); further: nearly all actives have a fitted effect of over 60% in size; conditions: P. falciparum in erythrocytes, SYBR Green DNA, 72 h; series mostly up to 28.7 µM
Results filed as inconclusive are left out. Activity calls are given as the source filed them. Calls follow the shape of the dose curve; as a rule, active = well fitted inhibition curve with a large enough effect; inconclusive = small, poorly fitted or top-dose-only effect; inactive = flat fitted curve, though single readings scatter.
Select the correct class. Options are Y for active, N for inactive and nothing else.

Could you check what this test reported for CCCCCCCCCC[N+](C)(C)CCCCCCCCCC ?
Y

Could you check what this test reported for O=C(O)c1ccccc1-c1c2cc(Br)c(=O)cc-2oc2[c]([Hg])c(O)c(Br)cc12 ?
N

Could you check what this test reported for CCN1C[C@]2(COC)[C@H](O)C[C@H](OC)[C@]34C1C([C@H](OC)[C@H]23)[C@]1(OC(C)=O)C2[C@@H](OC(=O)c3ccccc3)C(O)(C[C@H]24)[C@@H](OC)[C@@H]1O ?
N

Could you check what this test reported for C[N+](C)(C)CC(=O)[O-] ?
N

----------
target: Glutathione peroxidase 1 (Homo sapiens); assay: Primary qHTS Assay for Inhibitors of Recombinant Selenoprotein Glutathione Peroxidase 1 (GPX1) (AID 1845191); details: recombinant GPX1, GR-coupled NADPH fluorescence, 15 min; series mostly up to 48.8 µM; further: nearly all actives have a fitted effect of over 65% in size
Results filed as inconclusive are left out. Calls of active or inactive are those of the source. Calls come from the whole dose curve; as a rule, active = well fitted inhibition curve with a large enough effect; inconclusive = small, poorly fitted or top-dose-only effect; inactive = flat fitted curve, though single readings scatter.
quantity.kind: activity, negative = inhibition

Below are worked cases with known answers.
compound	result
CC(=O)O[C@H]1C(=O)[C@]2(C)C(O)C[C@H]3OC[C@@]3(OC(C)=O)[C@H]2[C@H](OC(=O)c2ccccc2)[C@]2(O)C[C@H](O)C(C)=C1C2(C)C (stereo not given in full)	inactive
CC(=O)OC[C@]12[C@H](OC(C)=O)C(=O)[C@@H]3[C@@H](O)[C@@]14O[C@@]3(C)COC(=O)c1cccnc1[C@@H](C)[C@H](C)C(=O)O[C@@H]([C@H](OC(C)=O)[C@@H]2OC(C)=O)[C@]4(C)O	inactive
C=C(C)[C@@H]1[C@H]2OC(=O)[C@H]1[C@]1(O)C[C@H]3O[C@]34C(=O)O[C@H]2[C@]14C	inactive
CC(=O)[C@@]1(O)CC[C@H]2[C@@H]3CCC4=CC(=O)CC[C@]4(C)C3(F)[C@@H](O)C[C@@]21C (stereo not given in full)	inactive
c1ccc(C2(c3ccccc3)OC[C@@H]([C@H]3CCCCN3)O2)cc1	inactive

Provide activity, negative = inhibition for all items below, preserving their order.
1. CCOC(=O)Nc1ccc(NCc2c(C)cc(C)cc2C)cc1N
2. CN1C(=O)[C@@H](Cc2c[nH]c3ccccc23)N=C(c2ccccc2F)c2ccccc21
3. C[C@]12CC[C@H](O)C[C@H]1CC[C@@H]1[C@@H]2[C@H](O)C(=O)[C@]2(C)[C@@H](c3ccc(=O)oc3)CC[C@]12O
4. CC1=CC2OC3[C@H](O)C[C@@](C)([C@]34CO4)[C@@]2(CO)[C@H](O)C1=O (stereo not given in full)
5. CO[C@H]1C[C@H](O[C@H]2CC[C@]3(CO)[C@H]4CC[C@]5(C)[C@@H](C6=CC(=O)OC6)CC[C@]5(O)[C@@H]4CC[C@]3(O)C2)O[C@H](C)[C@H]1O

["inactive", "inactive", "inactive", "inactive", "inactive"]

Provide activity, negative = inhibition for all items below, preserving their order.
1. COc1ccc(C23CCC(=O)C=C2N(C)CC3)cc1OC (stereo not given)
2. COC1CC(O[C@H]2CC[C@]3(C)C4CC[C@]5(C)[C@@H](C6=CC(=O)OC6)[C@@H](OC(C)=O)C[C@]5(O)C4CC[C@@H]3C2)OC(C)C1O[C@@H]1O[C@H](CO)[C@@H](O)[C@H](O)[C@H]1O (stereo not given in full)
3. CC1CCCC(O)CC(=O)Cc2cc(O)cc(O)c2C(=O)O1 (stereo not given)
4. CC1=CC2OC3CC(O)[C@](C)([C@@]2(C)C(O)C1=O)[C@]31CO1 (stereo not given in full)
5. CN1CCCCC1Cn1cc(C(=O)c2cc([N+](=O)[O-])ccc2I)c2ccccc21 (stereo not given)
6. C/C=C(/C)C1C=CC2CC(C)CC(C)C2C1/C(O)=C1\C(=O)NC(CC(C)(O)C(=O)O)C1=O (stereo not given)
7. O=C1CN=C(c2ccccc2Cl)c2cc(Br)ccc2N1

1: inactive; 2: inactive; 3: inactive; 4: inactive; 5: inactive; 6: inactive; 7: inactive
